- test: Developed color of polymer plate under xenon light (color density, maximum absorption wavelength)
- Type: physicochemical
- setup conditions: 0.04 parts in polymer plate
- From the text: 0.04 Parts of fulgimide compounds shown in Table 3, 70 parts of tetraethyleneglycol dimethacrylate, 15 parts of triethyleneglycol dimethacrylate, 10 parts of glycidyl methacrylate, 5 parts of 2-hydroethylmethacrylate and 1 part of perbutyl ND as a polymerization catalyst, were sufficiently mixed together until they were completely dissolved. […]
observation type: Color density

Consider the reported Color density for these compounds:
IN: Name the recorded Color density for COc1c(C)sc2c1C1(C3CC4CC(C3)CC1C4)C1C(=O)N(C(=O)Oc3ccccc3)C(=O)C1=C2C (stereo not drawn) .
OUT: 0.54

IN: Name the recorded Color density for N#CN1C(=O)C2=C(c3ccoc3)c3ccoc3C3(C4CCC3CC4)C2C1=O (stereo not drawn) .
OUT: 1.11

IN: Name the recorded Color density for CC(=O)N1C(=O)C2=C(C3CC3)c3ccsc3C3(C4CC5CC(C4)CC3C5)C2C1=O (stereo not drawn) .
OUT: 1.20

[1] O=C1C2=C(c3ccccc3)c3c(oc4ccccc34)C3(C4CCC3CC4)C2C(=O)N1C(Cl)(Cl)Cl (stereo not drawn)
[2] CC1=C2C(=O)N(C#N)C(=O)C2C2(c3sccc31)C1CC3CC(C1)CC2C3 (stereo not drawn)
IN: // pick larger Color density from pair: 1 vs 2 Give the chosen item's label as your response.
OUT: 1
(1: 0.95, 2: 0.56)

These data points were gathered from patent US5631382A.
